The reported measurements were obtained from patent US20240067634A1.

Please provide measured IC50 for the entries that follow.
Target Desc: V-ATPase-dependent lysosomal acidification
Experimental Details: cells
Format: cell-based, human
Assay Setup: 24 hr Lysotracker IC50; 1000 nM set as activity threshold (FIG. 11-14); read-out: Lyso IC50
Record the value in nM, omitting the unit from your answer.

Could you share which IC50 value was measured for C/C=C/C1OC(O)(C(C)C(O)C(C)C2OC(=O)/C(OC)=C/C(C)=C/C(C)C(O)C(CC)C(O)C(C)C/C(C)=C/C=C/C2OC)CC(OC(=O)/C=C/C(=O)NC2=C(O)CCC2=O)C1C (stereo not drawn) [Virustomycin, reference compound] ?
3.68

Request: C/C=C/[C@H]1O[C@@H]([C@@H](C)[C@H](O)[C@H](C)[C@H]2OC(=O)/C(OC)=C/C(C)=C/[C@@H](C)[C@@H](O)[C@@H](CC)[C@@H](O)[C@H](C)C/C(C)=C/C=C/[C@@H]2OC)C[C@@H](O)[C@@H]1C
23.3

Request: CC=CC=CC1OC(O)(C(C)C(O)C(C)C2OC(=O)C(OC)=CC(C)=CC(C)C(O)C(C)CC(C)=CC=CC2OC)CC(OC2CC(O)C(O)C(C)O2)C1C (stereo not drawn) [PC-766B, reference compound]
2.72
